Origin of measurements: patent US10544130B2

Assignment: determine reported Serratia marcescens (IMP-1) MITC95 for the given molecules.
system: Serratia marcescens expressing IMP-1 (CL5741); type: cell-based; conditions: with imipenem 1 μg/ml; 95% inhibition of bacterial growth
Respond with the bare value in µM.

Record NCCNS(=O)(=O)c1ccc(-c2cccc3[nH]c([C@H](N)CN)nc23)c(-c2nn[nH]n2)c1S(N)(=O)=O , field Serratia marcescens (IMP-1) MITC95: 3.125

Record Cc1cc(-c2ccc(S(=O)(=O)NC[C@H](O)CN)c(S(N)(=O)=O)c2-c2nn[nH]n2)cnc1N , field Serratia marcescens (IMP-1) MITC95: 0.7813

Record C[C@@H](CN)NS(=O)(=O)c1ccc(-c2ccnc(N)c2)c(-c2nn[nH]n2)c1S(N)(=O)=O , field Serratia marcescens (IMP-1) MITC95: 1.563

Record NCCNS(=O)(=O)c1ccc(-c2cccc3[nH]c([C@@H](N)CN)nc23)c(-c2nn[nH]n2)c1S(N)(=O)=O , field Serratia marcescens (IMP-1) MITC95: 3.125

Record Nc1cc(-c2ccc(S(=O)(=O)N[C@@H]3CCNC3)c(S(N)(=O)=O)c2-c2nn[nH]n2)ccn1 , field Serratia marcescens (IMP-1) MITC95: 1.563

Record CN(CCN)S(=O)(=O)c1ccc(-c2cccc3[nH]c(N)nc23)c(-c2nn[nH]n2)c1S(N)(=O)=O , field Serratia marcescens (IMP-1) MITC95: 1.563

Record NS(=O)(=O)c1c(S(=O)(=O)N[C@@H]2CCNC2)ccc(-c2cnc3cc[nH]c3c2)c1-c1nn[nH]n1 , field Serratia marcescens (IMP-1) MITC95: 0.7813
